The measurements presented in this section are drawn from ChEMBL document CHEMBL2150851.

# tested_system: Procathepsin L (Homo sapiens)
# Sequence (P07711 whole entry): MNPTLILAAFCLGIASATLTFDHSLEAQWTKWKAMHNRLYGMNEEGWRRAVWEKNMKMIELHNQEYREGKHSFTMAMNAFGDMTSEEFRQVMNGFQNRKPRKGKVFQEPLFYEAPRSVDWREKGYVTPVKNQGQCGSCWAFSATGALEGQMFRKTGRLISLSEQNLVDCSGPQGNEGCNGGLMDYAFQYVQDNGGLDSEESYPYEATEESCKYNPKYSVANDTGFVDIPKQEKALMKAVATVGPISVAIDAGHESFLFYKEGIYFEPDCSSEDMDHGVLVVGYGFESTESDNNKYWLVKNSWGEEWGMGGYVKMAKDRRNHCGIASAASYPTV
# assay_details: Inhibition of human cathepsin L using Z-Phe-Arg-pNA as substrate after 10 mins by spectrophotometric analysis
Please go through the items and note down their Ki.

Which Ki is reported for this compound? CC(C)CS(=O)(=O)CC(NC(=O)c1cc2ccccc2s1)C(=O)NCC#N (racemic) > 4 µM

Form field: reported Ki of CC(C)CS(=O)(=O)CC(NC(=O)c1ccc(-c2cccs2)s1)C(=O)NCC#N (racemic) > 4 µM

Give the measured Ki of CC(C)CS(=O)(=O)C[C@H](NC(=O)c1ccccc1)C(=O)NCC#N . 37 µM

For the compound shown here, CC(C)CS(=O)(=O)CC(NC(=O)c1cc2ccsc2s1)C(=O)NCC#N (racemic) , give the reported Ki. > 4 µM

Form field: reported Ki of CC(C)CS(=O)(=O)CC(NC(=O)c1ccc(-c2cccs2)cc1)C(=O)NCC#N (racemic) > 4 µM

Any idea what Ki was measured for CC(C)CS(=O)(=O)CC(NC(=O)c1ccc(-c2nnn[nH]2)s1)C(=O)NCC#N (racemic) ? > 4 µM

Reported Ki for CC(C)CS(=O)(=O)CC(NC(=O)c1ccc(-c2ccsc2)s1)C(=O)NCC#N (racemic) : what is it? > 4 µM

Reported Ki, compound CC(C)CS(=O)(=O)CC(NC(=O)c1ccccc1)C(=O)NCC#N (racemic) : ____ > 40 µM

Would you mind telling me what Ki value was observed for CC(C)CS(=O)(=O)CC(NC(=O)c1cccs1)C(=O)NCC#N (racemic) ? > 40 µM

# input compound: CC(C)CS(=O)(=O)CC(NC(=O)c1ccc(-c2ccccc2)s1)C(=O)NCC#N (racemic) ; wanted: its Ki > 4 µM

Look at this compound and give its reported Ki. CC(C)CS(=O)(=O)CC(NC(=O)c1cc(-c2ccccc2)cs1)C(=O)NCC#N (racemic) > 4 µM

###

# tested_system: Cathepsin B (Homo sapiens, UniProt P07858)
# assay_details: Inhibition of human cathepsin B using Z-Arg-Arg-pNA as substrate after 10 mins by spectrophotometric analysis
measurement_name: pKi
pKi is a log-scale quantity: -log10 of the concentration expressed in molar.

Query the reported pKi for Cathepsin B (Homo sapiens, UniProt P07858); item: CC(C)CS(=O)(=O)CC(NC(=O)c1ccc(-c2nnn[nH]2)s1)C(=O)NCC#N (racemic) 4.47

Look up pKi with Cathepsin B (Homo sapiens, UniProt P07858) for this molecule: CC(C)CS(=O)(=O)CC(NC(=O)c1cccs1)C(=O)NCC#N (racemic) 4.62

Record lookup: for Cathepsin B (Homo sapiens, UniProt P07858), what pKi belongs to CC(C)CS(=O)(=O)C[C@H](NC(=O)c1ccccc1)C(=O)NCC#N ? 4.62

Query for Cathepsin B (Homo sapiens, UniProt P07858): what pKi does the record show for CC(C)CS(=O)(=O)CC(NC(=O)c1cc2ccsc2s1)C(=O)NCC#N (racemic) ? 5.14

Find the measured pKi: item CC(C)CS(=O)(=O)CC(NC(=O)c1cc(-c2ccccc2)cs1)C(=O)NCC#N (racemic) , target or system Cathepsin B (Homo sapiens, UniProt P07858). 5.19

Observed pKi on Cathepsin B (Homo sapiens, UniProt P07858) for CC(C)CS(=O)(=O)CC(NC(=O)c1ccccc1)C(=O)NCC#N (racemic) , please. 4.40

Find pKi (Cathepsin B (Homo sapiens, UniProt P07858)) for the entry CC(C)CS(=O)(=O)CC(NC(=O)c1ccc(-c2cccs2)s1)C(=O)NCC#N (racemic) 5.47

Write down the reported pKi of CC(C)CS(=O)(=O)CC(NC(=O)c1ccc(-c2ccsc2)s1)C(=O)NCC#N (racemic) , test system: Cathepsin B (Homo sapiens, UniProt P07858). 5.27

Return pKi measured with Cathepsin B (Homo sapiens, UniProt P07858) given this molecule: CC(C)CS(=O)(=O)CC(NC(=O)c1ccc(-c2cccs2)cc1)C(=O)NCC#N (racemic) 5.41

GET /values?readout=pKi&system=Cathepsin B (Homo sapiens, UniProt P07858)&item= CC(C)CS(=O)(=O)CC(NC(=O)c1ccc(-c2ccccc2)s1)C(=O)NCC#N (racemic) 5.29

Write down the reported pKi of CC(C)CS(=O)(=O)CC(NC(=O)c1cc2ccccc2s1)C(=O)NCC#N (racemic) , test system: Cathepsin B (Homo sapiens, UniProt P07858). 5.17

###

For each of the molecules below, state its Ki.
# tested_system: Cathepsin F (Homo sapiens, UniProt Q9UBX1)
# Sequence (Q9UBX1 whole entry): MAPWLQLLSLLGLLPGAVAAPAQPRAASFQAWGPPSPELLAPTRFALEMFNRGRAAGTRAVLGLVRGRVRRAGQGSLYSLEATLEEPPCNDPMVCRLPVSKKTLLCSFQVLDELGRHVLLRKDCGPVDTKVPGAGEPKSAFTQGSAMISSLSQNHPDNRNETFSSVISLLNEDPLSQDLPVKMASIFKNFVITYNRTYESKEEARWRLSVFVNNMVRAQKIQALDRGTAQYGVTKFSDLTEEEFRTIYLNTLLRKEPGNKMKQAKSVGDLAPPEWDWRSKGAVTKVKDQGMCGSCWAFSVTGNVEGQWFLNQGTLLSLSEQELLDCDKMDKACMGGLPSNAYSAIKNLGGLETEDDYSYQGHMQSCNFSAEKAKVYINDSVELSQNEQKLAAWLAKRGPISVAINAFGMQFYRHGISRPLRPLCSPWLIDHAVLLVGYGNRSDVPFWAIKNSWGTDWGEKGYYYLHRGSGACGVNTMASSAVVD
# assay_details: Inhibition of human recombinant cathepsin F using Z-Phe-Arg-AMC as substrate after 8 min by fluorimetric analysis

Please report the recorded Ki for CC(C)CS(=O)(=O)C[C@H](NC(=O)c1ccccc1)C(=O)NCC#N . > 40 µM

Reported Ki, molecule CC(C)CS(=O)(=O)CC(NC(=O)c1ccc(-c2ccsc2)s1)C(=O)NCC#N (racemic) : ____ > 4 µM

I have this molecule here, CC(C)CS(=O)(=O)CC(NC(=O)c1cccs1)C(=O)NCC#N (racemic) , and I need its recorded Ki. > 40 µM

Form field: reported Ki of CC(C)CS(=O)(=O)CC(NC(=O)c1ccc(-c2cccs2)cc1)C(=O)NCC#N (racemic) > 4 µM

Reported Ki, molecule CC(C)CS(=O)(=O)CC(NC(=O)c1cc2ccsc2s1)C(=O)NCC#N (racemic) : ____ > 4 µM

What does the record list as Ki for CC(C)CS(=O)(=O)CC(NC(=O)c1cc(-c2ccccc2)cs1)C(=O)NCC#N (racemic) ? > 4 µM

Would you mind telling me what Ki value was observed for CC(C)CS(=O)(=O)CC(NC(=O)c1ccccc1)C(=O)NCC#N (racemic) ? > 40 µM

I am curious: what Ki value has been reported for CC(C)CS(=O)(=O)CC(NC(=O)c1ccc(-c2ccccc2)s1)C(=O)NCC#N (racemic) ? > 4 µM

# input molecule: CC(C)CS(=O)(=O)CC(NC(=O)c1ccc(-c2cccs2)s1)C(=O)NCC#N (racemic) ; wanted: its Ki 3.2 µM

Request the reported Ki associated with CC(C)CS(=O)(=O)CC(NC(=O)c1ccc(-c2nnn[nH]2)s1)C(=O)NCC#N (racemic) > 4 µM

So what's the measured Ki for this one? CC(C)CS(=O)(=O)CC(NC(=O)c1cc2ccccc2s1)C(=O)NCC#N (racemic) > 4 µM
